# System Tested: T1, CARD11, Q9BXL7
# T1 sequence (Q9BXL7 662-765, limits assumed, looked up): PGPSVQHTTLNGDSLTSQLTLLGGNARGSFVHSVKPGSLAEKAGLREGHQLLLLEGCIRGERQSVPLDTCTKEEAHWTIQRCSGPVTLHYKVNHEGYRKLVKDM
# Test Summary: holdup assay
# Parameters: key: below the threshold = too weak to quantify, mostly under pKd 3.1 to 4
# Assay Conditions: plain residues with an end cap or a label only (N-terminal biotin on a linker: ado-ado)
Metric Name: pKd

Some binders with known pKd results, for comparison:
AHGSTRDQSI [KCNB1, Q14721] ... below the threshold
VKQYADVEGF [HNRNPK, P61978;P61978-2] ... below the threshold
LVEEEEPMNL [HDAC7, Q8WUI4] ... below the threshold
EPAKETTTNV [SLC2A3, P11169] ... below the threshold

Would you kindly look at the next entry?
INPUT: Look up and state reported pKd for THREVKFTSL [CD46, P15529]
OUTPUT: below the threshold
